Molecular target: UniProtKB P33033
Assay: Antagonist activity at mouse melanocortin receptor 3 expressed in HEK293 cells assessed as inhibition of NDP-MSH-induced cAMP accumulation after 2 hrs by AlphaScreen assay
Format: functional, cell-based
Settings: read-out: pA2 (converted)
Non-standard residues stand in square brackets, D forms with d. Residues, ends and D or L forms follow the SMILES beside them.
Measured Kb of individual entries

| compound | censoring-qualifier | Kb (nM) |
| --- | --- | --- |
| C[C@@H]1NC(=O)[C@H](Cc2ccccc2)NC(=O)[C@H](Cc2ccccc2)NC(=O)[C@H](Cc2ccccc2)NC(=O)[C@H](CCCNC(=N)N)NC(=O)[C@@H]2CCCN2C(=O)[C@H]2CCCN2C(=O)[C@H](Cc2ccccc2)NC1=O | > | 3160 |
| N=C(N)NCCC[C@@H]1NC(=O)[C@@H]2CCCN2C(=O)[C@H]2CCCN2C(=O)[C@H](Cc2ccccc2)NC(=O)[C@H](Cc2ccccc2)NC(=O)[C@H](CC(N)=O)NC(=O)[C@H](Cc2ccccc2)NC(=O)[C@H](Cc2ccccc2)NC1=O | = | 1910 |
| C[C@@H]1NC(=O)[C@H](C)NC(=O)[C@H](Cc2ccccc2)NC(=O)[C@H](Cc2ccccc2)NC(=O)[C@H](CCCNC(=N)N)NC(=O)[C@@H]2CCCN2C(=O)[C@H]2CCCN2C(=O)[C@H](Cc2ccccc2)NC1=O | > | 3160 |
| C[C@@H]1NC(=O)[C@H]([C@@H](C)O)NC(=O)[C@H](Cc2ccccc2)NC(=O)[C@H](Cc2ccccc2)NC(=O)[C@H](CCCNC(=N)N)NC(=O)[C@@H]2CCCN2C(=O)[C@H]2CCCN2C(=O)[C@H](Cc2ccccc2)NC1=O (cyclo(RFFTAF[dP]P)) | = | 398 |

====

Molecular target: Melanocortin receptor 3 (Mus musculus, UniProt P33033)
Sequence (P33033 whole entry): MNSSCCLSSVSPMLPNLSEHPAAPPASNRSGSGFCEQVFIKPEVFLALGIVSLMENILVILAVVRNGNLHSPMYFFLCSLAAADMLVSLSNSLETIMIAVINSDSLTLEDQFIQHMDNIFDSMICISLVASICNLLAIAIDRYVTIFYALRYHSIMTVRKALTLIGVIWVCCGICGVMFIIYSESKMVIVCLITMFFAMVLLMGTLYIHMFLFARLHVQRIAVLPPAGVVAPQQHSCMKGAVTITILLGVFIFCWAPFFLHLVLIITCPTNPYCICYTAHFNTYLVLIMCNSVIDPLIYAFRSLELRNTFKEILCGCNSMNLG
Assay: Antagonist activity at mouse melanocortin receptor 3 expressed in HEK293 cells assessed as inhibition of NDP-MSH-induced cAMP accumulation after 2 hrs by AlphaScreen assay
Type: functional, cell-based
Conditions: read-out: pA2 (converted)
Non-standard residues stand in square brackets, D forms with d. Residues, ends and D or L forms follow the SMILES beside them.
measured-endpoint: Kb (nM)

| molecule | tgt | censoring-qualifier | test-value |
| --- | --- | --- | --- |
| C[C@@H]1NC(=O)[C@H](CN)NC(=O)[C@H](Cc2ccccc2)NC(=O)[C@H](Cc2ccccc2)NC(=O)[C@H](CCCNC(=N)N)NC(=O)[C@@H]2CCCN2C(=O)[C@H]2CCCN2C(=O)[C@H](Cc2ccccc2)NC1=O | Melanocortin receptor 3 (Mus musculus, UniProt P33033) | = | 302 |
| C[C@@H]1NC(=O)[C@H](CO)NC(=O)[C@H](Cc2ccccc2)NC(=O)[C@H](Cc2ccccc2)NC(=O)[C@H](CCCNC(=N)N)NC(=O)[C@@H]2CCCN2C(=O)[C@H]2CCCN2C(=O)[C@H](Cc2ccccc2)NC1=O | Melanocortin receptor 3 (Mus musculus, UniProt P33033) | = | 1260 |
| C[C@@H]1NC(=O)[C@H](CC(N)=O)NC(=O)[C@H](Cc2ccccc2)NC(=O)[C@H](Cc2ccccc2)NC(=O)[C@H](CCCNC(=N)N)NC(=O)[C@@H]2CCCN2C(=O)[C@H]2CCCN2C(=O)[C@H](C)NC1=O (cyclo(RFFNAA[dP]P)) | Melanocortin receptor 3 (Mus musculus, UniProt P33033) | = | 794 |
| N=C(N)NCCC[C@@H]1NC(=O)[C@@H]2CCCN2C(=O)[C@H]2CCCN2C(=O)[C@H](Cc2ccccc2)NC(=O)[C@H](CCC(=O)O)NC(=O)[C@H](CC(N)=O)NC(=O)[C@H](Cc2ccccc2)NC(=O)[C@H](Cc2ccccc2)NC1=O (cyclo(RFFNEF[dP]P)) | Melanocortin receptor 3 (Mus musculus, UniProt P33033) | > | 3160 |

====

Biological target: Melanocortin receptor 3 (Mus musculus, UniProt P33033)
Experiment: Agonist activity at mouse melanocortin receptor 3 expressed in HEK293 cells assessed as increase in cAMP accumulation after 2 hrs by AlphaScreen assay
Non-standard residues stand in square brackets, D forms with d. Residues, ends and D or L forms follow the SMILES beside them.

| compound | EC50 |
| --- | --- |
| C[C@@H]1NC(=O)[C@H](CCC(=O)O)NC(=O)[C@H](Cc2ccccc2)NC(=O)[C@H](Cc2ccccc2)NC(=O)[C@H](CCCNC(=N)N)NC(=O)[C@@H]2CCCN2C(=O)[C@H]2CCCN2C(=O)[C@H](Cc2ccccc2)NC1=O | > 100 µM |
| CCCC[C@@H]1NC(=O)[C@H](Cc2ccccc2)NC(=O)[C@H](Cc2ccccc2)NC(=O)[C@H](CCCNC(=N)N)NC(=O)[C@@H]2CCCN2C(=O)[C@H]2CCCN2C(=O)[C@H](Cc2ccccc2)NC(=O)[C@H](C)NC1=O | > 100 µM |
| CC(C)[C@@H]1NC(=O)[C@H](Cc2ccccc2)NC(=O)[C@H](Cc2ccccc2)NC(=O)[C@H](CCCNC(=N)N)NC(=O)[C@@H]2CCCN2C(=O)[C@H]2CCCN2C(=O)[C@H](Cc2ccccc2)NC(=O)[C@H](C)NC1=O | > 100 µM |
| N=C(N)NCCC[C@@H]1NC(=O)[C@@H]2CCCN2C(=O)[C@H]2CCCN2C(=O)[C@H](Cc2ccccc2)NC(=O)[C@H](Cc2c[nH]cn2)NC(=O)[C@H](CC(N)=O)NC(=O)[C@H](Cc2ccccc2)NC(=O)[C@H](Cc2ccccc2)NC1=O (cyclo(RFFNHF[dP]P)) | > 100 µM |

====

Biological target: Melanocortin receptor 3 (Mus musculus, UniProt P33033)
Assay: Antagonist activity at mouse melanocortin receptor 3 expressed in HEK293 cells assessed as inhibition of NDP-MSH-induced cAMP accumulation after 2 hrs by AlphaScreen assay
Format: functional, cell-based
Conditions: read-out: pA2 (converted)
Non-standard residues stand in square brackets, D forms with d. Residues, ends and D or L forms follow the SMILES beside them.
measured-endpoint: Kb

| compound | test-value |
| --- | --- |
| CC(C)C[C@@H]1NC(=O)[C@H](Cc2ccccc2)NC(=O)[C@H](Cc2ccccc2)NC(=O)[C@H](CCCNC(=N)N)NC(=O)[C@@H]2CCCN2C(=O)[C@H]2CCCN2C(=O)[C@H](Cc2ccccc2)NC(=O)[C@H](C)NC1=O (cyclo(RFFLAF[dP]P)) | 2000 nM |
| N=C(N)NCCC[C@@H]1NC(=O)[C@@H]2CCCN2C(=O)[C@H]2CCCN2C(=O)[C@H](Cc2ccccc2)NC(=O)[C@H](CC(=O)O)NC(=O)[C@H](CC(N)=O)NC(=O)[C@H](Cc2ccccc2)NC(=O)[C@H](Cc2ccccc2)NC1=O (cyclo(RFFNDF[dP]P)) | > 3160 nM |
| CC(C)[C@@H]1NC(=O)[C@H](Cc2ccccc2)NC(=O)[C@H](Cc2ccccc2)NC(=O)[C@H](CCCNC(=N)N)NC(=O)[C@@H]2CCCN2C(=O)[C@H]2CCCN2C(=O)[C@H](Cc2ccccc2)NC(=O)[C@H](C)NC1=O | > 3160 nM |
| N=C(N)NCCC[C@@H]1NC(=O)[C@@H]2CCCN2C(=O)[C@H]2CCCN2C(=O)[C@H](Cc2ccccc2)NC(=O)[C@H](CCCCN)NC(=O)[C@H](CC(N)=O)NC(=O)[C@H](Cc2ccccc2)NC(=O)[C@H](Cc2ccccc2)NC1=O | > 3160 nM |
| N=C(N)NCCC[C@@H]1NC(=O)[C@@H]2CCCN2C(=O)[C@H]2CCCN2C(=O)[C@H](Cc2ccccc2)NC(=O)[C@H](Cc2c[nH]cn2)NC(=O)[C@H](CC(N)=O)NC(=O)[C@H](Cc2ccccc2)NC(=O)[C@H](Cc2ccccc2)NC1=O (cyclo(RFFNHF[dP]P)) | > 3160 nM |
| CCC1NC(=O)[C@H](Cc2ccccc2)NC(=O)[C@H](Cc2ccccc2)NC(=O)[C@H](CCCNC(=N)N)NC(=O)[C@@H]2CCCN2C(=O)[C@H]2CCCN2C(=O)[C@H](Cc2ccccc2)NC(=O)[C@H](C)NC1=O (stereo partly drawn) | > 3160 nM |
| C[C@@H]1NC(=O)[C@H](Cc2c[nH]c3ccccc23)NC(=O)[C@H](Cc2ccccc2)NC(=O)[C@H](Cc2ccccc2)NC(=O)[C@H](CCCNC(=N)N)NC(=O)[C@@H]2CCCN2C(=O)[C@H]2CCCN2C(=O)[C@H](Cc2ccccc2)NC1=O (cyclo(RFFWAF[dP]P)) | 2000 nM |
| C[C@@H]1NC(=O)[C@@H](CN)NC(=O)[C@H](Cc2ccccc2)NC(=O)[C@H](Cc2ccccc2)NC(=O)[C@H](CCCNC(=N)N)NC(=O)[C@@H]2CCCN2C(=O)[C@H]2CCCN2C(=O)[C@H](Cc2ccccc2)NC1=O | 200 nM |
